system: RXF 631; assay: NCI tumour cell line growth inhibition, 48 h
Active and inactive are the calls of the source. Rule as the data show it: active = GI50 up to about 1.1 µM and inactive = higher.
Pick from 1 (active), -1 (inactive) when you respond.

Worked set:
{"columns": ["Molecule", "Category label"],
 "data": [
  ["CCN(CC)CCSc1nc2cccc([N+](=O)[O-])c2[nH]1", -1],
  ["COc1ccc2c(CCNS(=O)(=O)c3ccccc3)c(C(C)=O)[nH]c2c1[N+](=O)[O-]", -1],
  ["CNC(=O)/C(=C/c1ccc(OC)cc1)c1cc(OC)c(OC)c(OC)c1", -1],
  ["CCCc1onc(CCC(=O)N(Cc2ccccc2)Cc2ccccc2)c1CC", -1],
  ["Cc1cc(C)nc(NS(=O)(=O)c2ccc(Nc3c4ccccc4nc4c(C(=O)N5CCN(CCOS(C)(=O)=O)CC5)ccc(Cl)c34)cc2)n1", -1]
]}

Hello, I am checking results. What call was entered for "COC(=O)c1cc(CNCCc2c[nH]c3ccccc23)on1" ?
-1

Which result was noted for this molecule in the test: "COc1cc(CCc2ccc(OCCN(C)C)cc2)cc(OC)c1OC"
-1

Which outcome did this test record for the molecule "CC1=C(C(=O)CC(=O)C(=O)Nc2ccccc2)Sc2ccccc2N1" ?
-1

Tell me the recorded outcome of this test for CC(C)C(Nc1c2ccccc2[n+]([O-])c2ccccc12)C(=O)O (centres undefined) .
-1

Short answer needed: outcome of this test for "C[C@]12CCC(=O)C=C1CC[C@@H]1[C@@H]2CC[C@]2(C)C(=O)NC(=O)C[C@@H]12" ?
-1

// return assay outcome for CC12OC3(O)C4C5CC(C6C5C3C61)C42 (centres undefined)
-1

Could you kindly confirm the outcome this assay logged for "O=C(/C=C/c1ccc(Cl)c(Cl)c1)c1ccc(F)cc1" ?
-1

----------
test system: Malme-3M; assay: NCI tumour cell line growth inhibition, 48 h
Activity calls are given as the source filed them. Rule as the data show it: active = GI50 up to about 1.1 µM and inactive = higher.
GI50 by entry:

Record excerpt, results attached:
{"columns": ["Molecule", "System tested", "Result"],
 "data": [
  ["Cn1c(=O)c2[nH]cnc2n(CC(N)=O)c1=O", "Malme-3M", "> 100 µM (inactive)"],
  ["CCOc1ccncc1[N+](=O)[O-]", "Malme-3M", "> 100 µM (inactive)"],
  ["CCOC(=O)CCc1cn2cc(Br)nc(OC)c2n1", "Malme-3M", "> 100 µM (inactive)"],
  ["CCc1c[n+]2c(cc1C1=CN3c4ccccc4[C@]45CCN6C/C(=C/CO)[C@H](C[C@H]64)[C@@H]([C@@H]1O)[C@H]35)-c1[nH]c3ccccc3c1CC2", "Malme-3M", "> 50 µM (inactive)"],
  ["c1ccc(CN[C@]23C4C5CC6C7C5C2C7[C@@](NCc2ccccc2)(C64)N3Cc2ccccc2)cc1 (some centres not stated)", "Malme-3M", "> 100 µM (inactive)"],
  ["O=C(CO[N+](=O)[O-])OCC(=O)c1ccccc1", "Malme-3M", "> 100 µM (inactive)"],
  ["O=C(O)CC(Cc1ccc2c(c1)OCO2)C(=O)O (configuration not stated)", "Malme-3M", "> 100 µM (inactive)"],
  ["CCCCCCCCCCCCCCCCCCNc1nc(=O)n(C2CC(O)C(COP(=O)(O)O)O2)cc1F (configuration not stated)", "Malme-3M", "> 100 µM (inactive)"]
]}

Given the entry "O=S(=O)(O)SCCNCCCCCC1CCCCC1" , report its measured GI50.
18.8 µM (inactive)

For the molecule shown here, "Cc1ncc([N+](=O)[O-])n1CCNS(=O)(=O)CCCn1ncnc1[N+](=O)[O-]" , give the reported GI50.
> 100 µM (inactive)

May I ask what GI50 has been recorded for CCN(CC)CCN(C)c1ccc(CO)c2c1c(=O)c1ccccc1[s+]2[O-] (configuration not stated) ?
11.9 µM (inactive)

Quick one: GI50 of "COCOCCC#CCO" ?
> 100 µM (inactive)

----------
tested on: CAKI-1; assay: NCI tumour cell line growth inhibition, 48 h
Active and inactive are the calls of the source. Rule as the data show it: active = GI50 up to about 1.1 µM and inactive = higher.
Listed here: items and their measured GI50.

Illustrative cases are given below, each with its answer.
{"columns": ["Molecule", "GI50"],
 "data": [
  ["COC1/C=C/OC2(C)Oc3c(C)c(O)c4c(c3C2=O)C(=O)C=C(NC(=O)/C(C)=C\\C=C\\C(C)C(OC=O)C(C)C(O)C(C)C(OC(C)=O)C1C)C4=O (stereo not drawn)", "12 µM (inactive)"],
  ["CC(=O)O[C@H]1C(=O)[C@@]2(C)[C@H]([C@H](OC(=O)c3ccc([N+](=O)[O-])cc3)[C@]3(O)C[C@H](OC(=O)[C@H](O)[C@@H](NC(=O)c4ccccc4)c4ccccc4)C(C)=C1C3(C)C)[C@]1(OC(C)=O)CO[C@@H]1C[C@@H]2O", "> 25 µM (inactive)"],
  ["Cc1ccc([Se](=C(C(=O)c2ccccc2)C(=O)c2ccccc2)c2ccc(C)cc2)cc1", "19.5 µM (inactive)"],
  ["CC(C)C1CO[C@]2(C)CCC(=O)N12 (stereo partly drawn)", "> 100 µM (inactive)"]
]}

Which GI50 is reported for this molecule? "Cc1c(-c2ccccc2)c(C#N)c2nnn(-c3ccc(Cl)cc3)c(=O)n12"
13.3 µM (inactive)

Any idea what GI50 was measured for CCOC(CBr)OC1C(=O)OCC1(C)C (stereo not drawn) ?
> 100 µM (inactive)

Item "COc1ccc2c(c1OC)C(=O)O[C@@H]2[C@H]1c2cc3c(cc2CCN1C)OCO3" has what recorded GI50?
> 100 µM (inactive)

Would you kindly share the measured GI50 for "O=C1c2ccccc2-c2nc(-c3ccncc3)cc3c2c1nc1ccccc13" ?
> 100 µM (inactive)

Give its GI50 value. Item: "O=C1Nc2ccccc2/C1=N/NC(=O)C(O)(c1ccccc1)c1ccccc1"
31.7 µM (inactive)

Look up GI50: "COc1c(C)c(OC)c(C(=O)CC(C)C)c(OC)c1C"
> 100 µM (inactive)

Entry under review: CCN(CC)C1CCC(C2c3cc4c(cc3OC(N3CCOCC3)C2C)OCO4)CC1 (stereo not drawn) . Reported GI50?
> 100 µM (inactive)

Which GI50 reading was recorded for the molecule O=CC1CCC=CC1NC(=O)OCc1ccccc1 (stereo not drawn) ?
34.4 µM (inactive)

Need GI50, item "CN(C)CCNC(=O)c1cccc2nc3c(ccc4ccccc43)nc12"
3.37 µM (inactive)

I'd like to know its GI50. The molecule in question is CC(=O)NC1C(OCc2ccccc2)OC(CO)C(O)C1OCC(=O)N[C@@H](C)C(=O)N[C@H](CCC(=O)NCCCCNc1c2ccccc2nc2cccc([N+](=O)[O-])c12)C(N)=O (stereo partly drawn)
1.49 µM (inactive)

Need GI50, item CCN(CC)CCCC(C)Nc1ccnc2ccc3nn(C)nc3c12 (stereo not drawn)
> 100 µM (inactive)

If you can, please state the reported GI50 value of "CN(C(=O)c1cc2c(s1)sc1c(=O)n(C)c3ccccc3c12)c1ccccc1" .
7.41 µM (inactive)

# get_value(readout='GI50', item= "CCC(=C(c1ccc(OCc2ccccc2)cc1)c1ccc(OCc2ccccc2)cc1)c1ccc(OC)cc1" )
> 100 µM (inactive)

Need GI50 of "COc1cc(CCc2ccc(OCCN(C)C)cc2)cc(OC)c1OC" , thanks.
> 100 µM (inactive)

----------
test system: SNB-75; test: NCI tumour cell line growth inhibition, 48 h
Activity calls are given as the source filed them. Rule as the data show it: active = GI50 up to about 1.1 µM and inactive = higher.
GI50 reference

{"columns": ["Substance smiles", "GI50"],
 "data": [
  ["CCc1c[n+]2c(cc1C1=CN3c4ccccc4[C@]45CCN6C/C(=C/CO)[C@H](C[C@H]64)[C@@H]([C@@H]1O)[C@H]35)-c1[nH]c3ccccc3c1CC2", "> 50 µM (inactive)"]
]}

Write down the reported GI50 of "C[C@@]12CC[C@H]3[C@@H]4CCC(=O)N[C@@]4(C)CC[C@@H]3[C@@]1(C)CC[C@H](OC(=O)Cc1ccc(N(CCCl)CCCl)cc1)C2" , test system: SNB-75.
18.3 µM (inactive)

API: value(readout=GI50, system=SNB-75) for record "O=C1c2ccccc2C(=O)N1n1c(Cc2ccccc2)n[nH]c1=O"
> 100 µM (inactive)

Test system SNB-75; read-out GI50; what value for "COC(=O)c1c/c(=N\NC(=O)CC(=O)Nc2ccc(C)cc2)c2ccccc2o1" ?
> 100 µM (inactive)

Find the measured GI50: item "N#[N+]c1cc2c(cc1Br)-c1ccccc1C2" , target or system SNB-75.
> 100 µM (inactive)

Tell me reported GI50 for "COC(=O)c1ccc(OCc2ccc3oc(=O)c(-c4ccccc4)nc3c2)cc1" , tested with SNB-75.
> 100 µM (inactive)

Observed GI50 on SNB-75 for "COc1ccc2c(c1OC)C(=O)O[C@@H]2[C@H]1c2cc3c(cc2CCN1C)OCO3" , please.
> 100 µM (inactive)

Find the measured GI50: item "C[C@]12CCC(=O)C=C1CC[C@@H]1[C@@H]2CC[C@]2(C)C(=O)NC(=O)C[C@@H]12" , target or system SNB-75.
> 100 µM (inactive)
